For each entry below, report its growth inhibition value.
Assay: NCI Yeast Anticancer Drug Screen. Data for the rad50 strain (AID 155);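 also: 0% = growth of vehicle-only cultures of the same strain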
Settings: S. cerevisiae rad50 strain growth inhibition; at 11.0 µM; stronger effect = higher value
This is part of a sample that, as a whole, favours compounds with a hit. Of some 79,000 tested, about 15% had one in any assay.
Enter your answer as a number in %; do not include the unit.

Lab note: CNC(=O)OCc1c(COC(=O)NC)c2n(c1C)-c1ccc(OC)cc1CCC2 gave growth inhibition of -43

Lab note: COc1cccc(/C=N/C(/N=C/c2cccc(OC)c2O)c2cccc(OC)c2O)c1O gave growth inhibition of 52

Lab note: CCCCCCCCCCCCCCCCCC(=O)NCCCN(C)C gave growth inhibition of -17

Lab note: COc1cc(O)c(O)c(C(C)(C)C)c1 gave growth inhibition of 3

Lab note: Cc1cc2c3ccccc3c3ccccc3c2nn1 gave growth inhibition of 72

Lab note: CC(C)CN(CC(C)C)C(=O)c1ccc(Cl)c(Cl)c1 gave growth inhibition of 6

Lab note: Oc1ccc(O)c(Cc2ccccc2)c1 gave growth inhibition of 97

Lab note: Cc1cccc[n+]1C1CCc2c(ccc3ccccc23)C1=O (stereo not given) gave growth inhibition of 0

Lab note: CCOC(=O)C#Cc1ccc([N+](=O)[O-])cc1 gave growth inhibition of 3

Lab note: OC(/C=C/c1ccccc1)(Cc1cc(-c2ccccc2)n[nH]1)c1ccccc1 (stereo not given) gave growth inhibition of 4

Lab note: CC(C)(C)C1=CC(=CC=C2C=CN(CCCCCCCCCCCO)C=C2)C=C(C(C)(C)C)C1=O gave growth inhibition of 99

Lab note: C/C=C/SC(=Nc1ccccc1)Nc1ccccc1 gave growth inhibition of -7

Lab note: NC(=O)c1c([N+](=O)[O-])cc(C(F)(F)F)cc1[N+](=O)[O-] gave growth inhibition of -1

Lab note: CCCCCCSc1ncnc2[nH]ncc12 gave growth inhibition of 34

Lab note: OCc1ccccc1Cc1ccccc1 gave growth inhibition of -1

Lab note: CCOc1c(N=Nc2ccccc2OC)c(C)nn1C(=S)S gave growth inhibition of 8

Lab note: Cc1ccccc1N=C(NO)c1ccccc1 gave growth inhibition of 31

Lab note: CN(C)/C=C/c1nnc([N+](=O)[O-])s1 gave growth inhibition of 49

Lab note: O=[N+]([O-])c1cc[n+]([O-])cc1 gave growth inhibition of -1

Lab note: CC1=C(SCc2ccccc2)C(=O)c2ccccc2C1=O gave growth inhibition of 8

Lab note: Cc1cccc2c1nc1ccc(Cl)cc1[n+]2C gave growth inhibition of 84

Lab note: CCOC(=O)COc1c(OC)cc(C2C3=C(COC3=O)Oc3cc4c(cc32)OCO4)cc1OC (stereo not given) gave growth inhibition of 1

Lab note: Cc1cc(O)c(C(C)C)cc1C1(c2cc(C(C)C)c(O)cc2C)OC(=O)c2ccccc21 gave growth inhibition of 10

Lab note: c1ccc2[nH]c(-c3cscn3)nc2c1 gave growth inhibition of -1

Lab note: CCOC(=O)c1ccc(NC(=O)O/N=C(/Cl)C(C)C)cc1 gave growth inhibition of 7

* * *

Assay: NCI Yeast Anticancer Drug Screen. Data for the rad50 strain (AID 155);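 also: 0% = growth of vehicle-only cultures of the same strain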
Details: S. cerevisiae rad50 strain growth inhibition; at 50.0 µM (retest, dose inferred, filed as 5.0); stronger effect = higher value
The panel holds about 79,000 compounds, 15% with a hit somewhere; the sample as a whole holds those more often.
Classification field: enter class 1 for growth inhibition values not below 80%, class 0 for values below it.

Does the reported growth inhibition for C[CH2][Sn]([CH2]C)([O]C(=O)C(N)Cc1ccccc1)[O]C(=O)C(N)Cc1ccccc1 (configuration not stated) fall at or above the 80% mark?
class 0

Does the reported growth inhibition for CC(=O)OC1CC2C(C)(C)C(=O)C=C[C@]2(C)C2CCC3(C)C(=CCC3[C@H](CO)C[C@H](O)C(=O)C(C)(C)O)[C@]12C (some centres not stated) fall at or above the 80% mark?
class 0

Does the reported growth inhibition for COc1oc(C(=O)NC2CCCCC2)c(-c2ccc(Cl)cc2)c1S(=O)(=O)c1ccccc1 fall at or above the 80% mark?
class 1

Does the reported growth inhibition for CN(C)c1ccc(C2CC(C)(O)Oc3cc4c(cc32)OCO4)cc1 (configuration not stated) fall at or above the 80% mark?
class 0

Does the reported growth inhibition for Cc1c2cc[n+](Cc3ccc(I)cc3)cc2c(C)c2c1[nH]c1ccccc12 fall at or above the 80% mark?
class 1

Does the reported growth inhibition for Nc1cc(N)c(N=Nc2cccc3c(S(=O)(=O)O)cccc23)cc1N=Nc1cc([N+](=O)[O-])ccc1O fall at or above the 80% mark?
class 0

Does the reported growth inhibition for N=C1N=Nc2nc(C3(c4nc5n(c4O)C(=N)N=N5)Cc4ccccc4C3=O)c(O)n21 (configuration not stated) fall at or above the 80% mark?
class 0

Does the reported growth inhibition for CN(C)N=Nc1ccccc1C(=O)NC#N fall at or above the 80% mark?
class 1

Does the reported growth inhibition for O=[N+]([O-])c1cc(F)c(F)cc1Sc1cc(F)c(F)cc1[N+](=O)[O-] fall at or above the 80% mark?
class 1

Does the reported growth inhibition for CC(O)=NC(Cc1ccc2ccccc2c1)C(O)=NC(Cc1ccc(Cl)cc1)C(O)=NC(Cc1c[nH]c2ccccc12)C(O)=NC(CO)C(O)=NC(Cc1ccc(O)cc1)C(O)=NC(CCCN=C(N)N)C(O)=NC(CC(C)C)C(O)=NC(CCCN=C(N)N)C(=O)N1CCCC1C(O)=NC(C)C(=N)O (configuration not stated) fall at or above the 80% mark?
class 0

Does the reported growth inhibition for CC(=O)OCC(C)Cc1cc2c(cc1Br)OCO2 (configuration not stated) fall at or above the 80% mark?
class 0

Does the reported growth inhibition for c1ccc2c(c1)sc1c3cnccc3ccc21 fall at or above the 80% mark?
class 0

Does the reported growth inhibition for CC(C)(C)CC(C)(C)c1cc(O)c(O)c(CN2CCCCC2)c1 fall at or above the 80% mark?
class 0

Does the reported growth inhibition for CCOC(=O)[C@H]1Nc2ccc(OC)cc2C2c3ccccc3CC21 (some centres not stated) fall at or above the 80% mark?
class 0

Does the reported growth inhibition for N/C(=N/N=C/c1cc(Br)cc(Br)c1O)NO fall at or above the 80% mark?
class 1

Does the reported growth inhibition for Cc1cc2c3ccccc3c3ccccc3c2nn1 fall at or above the 80% mark?
class 0

Does the reported growth inhibition for CCC(C)(C)c1ccc(Oc2cccc(C(=O)O)c2)cc1 fall at or above the 80% mark?
class 0

Does the reported growth inhibition for Cc1c2ccnc(C(=O)NCCN(C)C)c2cc2c3cc(O)ccc3n(C)c12 fall at or above the 80% mark?
class 0

Does the reported growth inhibition for c1ccc2cc(NCNc3ccc4ccccc4c3)ccc2c1 fall at or above the 80% mark?
class 0

Does the reported growth inhibition for Cc1c(C(C)C)cc(OCCO)cc1C(C)C fall at or above the 80% mark?
class 0

Does the reported growth inhibition for CC(C)OC(=O)c1ccc(CCc2cc(O)c(Br)cc2O)cc1 fall at or above the 80% mark?
class 1

Does the reported growth inhibition for Cc1cc(O)c(C(C)C)cc1C1(c2cc(C(C)C)c(O)cc2C)OC(=O)c2ccccc21 fall at or above the 80% mark?
class 1

Does the reported growth inhibition for O=C1N=C2SC=C(NC(=S)Nc3ccccc3)N2NC12c1ccccc1-c1ccccc12 fall at or above the 80% mark?
class 0

Does the reported growth inhibition for NC1=NNC2(C(N)=N1)c1ccccc1-c1ccccc12 fall at or above the 80% mark?
class 1

Does the reported growth inhibition for Cc1cc(C)nc(NS(=O)(=O)c2ccc(Nc3c4ccccc4nc4c(C(=O)NCCO)cccc34)cc2)n1 fall at or above the 80% mark?
class 1

Does the reported growth inhibition for N#CC(=Nc1ccccc1F)Nc1ccccc1F fall at or above the 80% mark?
class 0

Does the reported growth inhibition for CCc1nc2ccc(NCCN(C)C)c3c(=O)c4ccccc4n1c23 fall at or above the 80% mark?
class 1

Does the reported growth inhibition for Cc1ccc2nc(-c3cccc([N+](=O)[O-])c3)oc(=O)c2c1 fall at or above the 80% mark?
class 0

Does the reported growth inhibition for CS(=O)(=O)SCc1ccc([N+](=O)[O-])cc1 fall at or above the 80% mark?
class 1

Does the reported growth inhibition for O=C1C=C(Cl)C(=O)C(c2ccc(Cl)cc2)=C1 fall at or above the 80% mark?
class 1

Does the reported growth inhibition for CC(C)CCCC(C)C1CCC2C3CCC4=CC(=O)/C(=C\O)CC4(C)C3CCC12C (configuration not stated) fall at or above the 80% mark?
class 0

Does the reported growth inhibition for CC1(C)CC(=O)C(/C=N/c2nc(-c3ccccc3)cs2)=C(O)C1 fall at or above the 80% mark?
class 0

Does the reported growth inhibition for O=C1CC(=O)c2ccccc21 fall at or above the 80% mark?
class 0

Does the reported growth inhibition for COC(=O)C1(C)CCc2c(ccc3ccccc23)C1=O (configuration not stated) fall at or above the 80% mark?
class 0

Does the reported growth inhibition for CN(C)CCCCN1c2ccccc2Sc2ccc(N=[N+]=[N-])cc21 fall at or above the 80% mark?
class 1

Does the reported growth inhibition for COc1cc(C2c3cc4c(cc3OC(OC(C)=O)C2C)OCO4)cc(OC)c1OC (configuration not stated) fall at or above the 80% mark?
class 0

Does the reported growth inhibition for Cc1c2cccc(Sc3ccccc3)c2c2c3c(cccc13)[S+](c1ccccc1)C2 (configuration not stated) fall at or above the 80% mark?
class 1

Does the reported growth inhibition for OC(/C=C/c1ccccc1)(Cc1cc(-c2ccccc2)n[nH]1)c1ccccc1 (configuration not stated) fall at or above the 80% mark?
class 1

Does the reported growth inhibition for Nc1ccc2c(c1)C(=O)c1ccc(F)cc1-2 fall at or above the 80% mark?
class 0

Does the reported growth inhibition for c1ccc2c(OCC3CO3)cccc2c1 (configuration not stated) fall at or above the 80% mark?
class 1

Does the reported growth inhibition for COc1cc(/C=C2\NC(=O)N(/C=C3\C(=O)Oc4ccccc4C3=O)C2=O)ccc1O fall at or above the 80% mark?
class 1
